Source of measurements: patent US20260327195A1

# test target: human recombinant αSYN fibrils (Homo sapiens, UniProt P37840)
# protocol summary: [3H]PiB competition binding assay on αSYN fibrils
# settings: methylated compounds; competition against 6 nM [3H]PiB; two data points; read-out: Ki (mean ± SEM)
# Method: Concentrations of αSYN and Aβ1-42 fibrils were as described above. Plates were incubated on a shaker (MaxQ 6000, Thermo Fisher Scientific Inc., Marietta, OH, USA) at 50 rpm for 2 hours at 37° C., covered by removable sealing tapes (PerkinElmer, Waltham, MA, USA). […] Data points were fitted using non-linear regression analysis in GraphPad Prism (GraphPad Software, Inc., Version 8.4.0, La Jolla, USA).
pKi: −log10 of the molar value.
Quick list: pKi per entry.

Some entries whose results are on file:
C[n+]1c(C=Cc2ccc(N3CCC(F)CC3)cc2)sc2ccccc21 [Compound 18b] = < 6.40
C[n+]1c(C=Cc2ccc(N3CCSCC3)cc2)sc2ccccc21 [Compound 16b] = < 6.40
CN(C)c1ccc(C=Cc2sc3ccccc3[n+]2C)cc1 [Compound 19b] = < 6.40
C[n+]1c(C=Cc2ccc(N3CCOCC3)cc2)sc2ccccc21 [Compound 15b] = < 6.40

Could you now look at the following compound, please?
Under human recombinant αSYN fibrils (Homo sapiens, UniProt P37840), report pKi for C[n+]1c(C=Cc2ccc(N3CCCCC3)cc2)sc2c(F)cccc21 [Compound 12b]
< 6.40

----------
# test target: human recombinant αSYN fibrils (Homo sapiens, UniProt P37840)
# protocol summary: [3H]PiB competition binding assay on αSYN fibrils
# settings: methylated compounds; competition against 6 nM [3H]PiB; two data points; read-out: Ki (mean ± SEM)
measured property: Ki

CN1CCN(c2ccc(C=Cc3sc4ccccc4[n+]3C)cc2)CC1 [RB2, reference compound] = > 400 nM
C[n+]1c(-c2ccc(N3CCCCC3)cc2)sc2ccccc21 [Compound 13b] = > 400 nM

Under human recombinant αSYN fibrils (Homo sapiens, UniProt P37840), report Ki for C[n+]1c(C=Cc2ccc(N3CCCCC3)cc2)sc2cccc(F)c21 [Compound 3b]
> 400 nM
